List of Binding (FOI) values.
target: T1, human CD3 expressed on cells (Jurkat cells; human primary T cells) (human, UniProt P07766 23-207; P04234 22-171; P09693 23-182); test: flow cytometry, 25 nM, human primary T cells
T1 construct: whole, on cells
T1 sequence (P07766 23-207, chain 1 of 3): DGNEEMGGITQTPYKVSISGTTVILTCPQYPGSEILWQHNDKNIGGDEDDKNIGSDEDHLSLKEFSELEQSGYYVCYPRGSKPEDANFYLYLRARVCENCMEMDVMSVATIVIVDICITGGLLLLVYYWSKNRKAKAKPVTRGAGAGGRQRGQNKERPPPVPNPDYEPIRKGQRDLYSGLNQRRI
T1 sequence (P04234 22-171, chain 2 of 3): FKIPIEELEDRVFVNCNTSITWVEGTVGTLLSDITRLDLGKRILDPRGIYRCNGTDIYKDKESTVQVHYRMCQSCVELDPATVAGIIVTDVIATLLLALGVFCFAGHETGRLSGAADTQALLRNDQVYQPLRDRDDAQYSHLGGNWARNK
T1 sequence (P09693 23-182, chain 3 of 3): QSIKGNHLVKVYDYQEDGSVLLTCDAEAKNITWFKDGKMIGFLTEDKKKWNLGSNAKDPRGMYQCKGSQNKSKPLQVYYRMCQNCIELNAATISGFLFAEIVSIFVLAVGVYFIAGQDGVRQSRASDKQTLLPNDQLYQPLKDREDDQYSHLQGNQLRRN
Provide the measurement as a number trailed by its unit.

[ask] Please give the documented Binding (FOI) of mAb 178 (antibody, V domains shown, VH/VL only) VH: EVQLVESGGGLVQPGRSLRLSCAASGFTFDDYTMHWVRQAPGKGLEWVSDISWNSGTIGYADSVKGRFTISRDNAKNSLYLQMNSLRAEDTALYYCVKDSSGYGHYYKYYMDVWGKGTTVTVSS VL: DIQMTQSPSSLSASVGDRVTITCRASQSISNYLNWYQQKAGKVPKVLIYGSSSLQSGVPSRFSGSGSGTDFTLTISSLQPEDFASYYCQQTYSSPLTFGGGTKVDFK
[reply] 172 FOI

[ask] Answer with reported Binding (FOI) of mAb 259 (antibody, V domains shown, VH/VL only) VH: EVLLLESGGGLVQPGGSLRLSCAASGFTFRSSSMTWVRQAPGKGLEWVSGIRGSGGRTYDAESVKGRFTISRDISKNTLYLQMNSVRAEDTAEYYCAKLYDYYNDYMDVWGKGTTVTVSS VL: SYELTQPLSVSVALGQTARITCGGNNIGSKNVHWYQQKPGQAPVLVIYRDSNRPSGIPERFSGSNSGNTATLTISRAQAGDEADYYCQVWDSSTAVFGGGTQLTAL
[reply] 214 FOI

[ask] Give recorded Binding (FOI). mAb 206 (antibody, V domains shown, VH/VL only) VH: QVQLVESGGGVVQPGRSLRLSCAASGFTFSGYGMHWVRQAPGKGLEWVAIIYYNGNNRKYADSVKGRFTISRDNSKNTVSLQMNSLRVEDTAIYYCTRGDGYNWFVTWGQGTLVTVSS VL: EIVMTQSPATLSVSPGERATLSCRASQSVSSNLAWYHQKPGQAPRLLIYGASTRATGIPVRFSGSGSGTEFTLTISSLQSEDFAVYYCQQYNNWPLTFGGGTKVEIK
[reply] 198 FOI

Recorded values, source patent US20230295310A1.
